Test: p53 small molecule agonists, cell-based qHTS assay with rat liver microsomes: qHTS cell viability counter screen (AID 1963580); further: nearly all actives have a fitted effect of over 45% in size
Details: p53RE-bla HCT-116 + rat microsomes, ATP viability, 16 h; series mostly up to 66 µM
Records with an inconclusive call do not appear. The source made the active and inactive calls. The call rests on the fitted dose curve.
Classes used: active, inactive

{"compound": "Nc1c(Oc2ccccc2)cc(O)c2c1C(=O)c1ccccc1C2=O", "discrete.label": "inactive"}
{"compound": "CCCCCCCCCCCCCCCC[N+](C)(C)C", "discrete.label": "inactive"}
{"compound": "c1ccc(-c2cccc(-c3ccccc3)c2)cc1", "discrete.label": "inactive"}
{"compound": "CCNc1nc(NCC)nc(SC)n1", "discrete.label": "inactive"}
{"compound": "CNC(=O)Oc1c(C(C)(C)C)cc(C)cc1C(C)(C)C", "discrete.label": "inactive"}
{"compound": "O=C(O)C(Cl)Cl", "discrete.label": "inactive"}
{"compound": "CC(C)(C)C(=O)Cl", "discrete.label": "inactive"}
{"compound": "Brc1ccc(Br)cc1", "discrete.label": "inactive"}
{"compound": "CCC12COCN1COC2", "discrete.label": "inactive"}
{"compound": "C#CCO", "discrete.label": "inactive"}
{"compound": "CON(C)C(=O)Nc1ccc(Cl)cc1", "discrete.label": "inactive"}
{"compound": "[Cd+2].[Cl-].[Cl-]", "discrete.label": "inactive"}
{"compound": "COc1ccc(N)cc1", "discrete.label": "inactive"}
{"compound": "O=NN1CCOCC1", "discrete.label": "inactive"}
{"compound": "COCCl", "discrete.label": "inactive"}
{"compound": "O=C(O)C(Br)Br", "discrete.label": "inactive"}
{"compound": "O=C(NC(=O)c1c(F)cccc1F)Nc1cc(Cl)c(OC(F)(F)C(F)C(F)(F)F)cc1Cl (stereo unspecified)", "discrete.label": "inactive"}
{"compound": "CC(C)C1(C)N=C(c2nc3ccccc3cc2C(=O)O)NC1=O (stereo unspecified)", "discrete.label": "inactive"}
{"compound": "C[N+](C)(C)Cc1ccccc1", "discrete.label": "inactive"}
{"compound": "O=C(O)c1nc(Cl)ccc1Cl", "discrete.label": "inactive"}
{"compound": "c1ccc(OP(Oc2ccccc2)Oc2ccccc2)cc1", "discrete.label": "inactive"}
{"compound": "CCCCCCCCOC(=O)c1ccccc1C(=O)OCCCCCCCC", "discrete.label": "inactive"}
{"compound": "CCNc1nc(NC(C)C)nc(OC)n1", "discrete.label": "inactive"}
{"compound": "N#CCc1ccccc1", "discrete.label": "inactive"}
{"compound": "COC(=O)c1c(C(F)F)nc(C(F)(F)F)c(C2=NCCS2)c1CC(C)C", "discrete.label": "inactive"}
{"compound": "CC(C)C(=O)OCC(C)(C)C(OC(=O)C(C)C)C(C)C (stereo unspecified)", "discrete.label": "inactive"}
{"compound": "Clc1ccc(Cl)c(Cl)c1", "discrete.label": "inactive"}
{"compound": "CC1(C)[C@H](C(=O)O[C@H](C#N)c2cccc(Oc3ccccc3)c2)[C@@H]1/C=C(\\Cl)C(F)(F)F", "discrete.label": "inactive"}
{"compound": "ClCOCCl", "discrete.label": "inactive"}
{"compound": "C#CCOC(=O)/C=C(C)/C=C/CC(C)CCCC(C)C (stereo unspecified)", "discrete.label": "inactive"}
{"compound": "N#Cc1c(Cl)c(Cl)c(Cl)c(C#N)c1Cl", "discrete.label": "inactive"}
{"compound": "O=P1(NCCCl)OCCCN1CCCl (stereo unspecified)", "discrete.label": "inactive"}
{"compound": "ClCCN1CCOCC1", "discrete.label": "inactive"}
{"compound": "CCCBr", "discrete.label": "inactive"}
{"compound": "Cc1cc(C)cc(C)c1", "discrete.label": "inactive"}
{"compound": "Cc1ccc(C(=O)Cl)cc1", "discrete.label": "inactive"}
{"compound": "Cc1cc(Cl)ccc1O", "discrete.label": "inactive"}
{"compound": "CC[N+]1(CC)CCC(OC(=O)C(O)(c2ccccc2)c2ccccc2)C1 (stereo unspecified)", "discrete.label": "inactive"}
{"compound": "CCCCOC(=O)CCC(=O)OCCCC", "discrete.label": "inactive"}
{"compound": "OCc1ccco1", "discrete.label": "inactive"}
{"compound": "CCCCOC(=O)c1ccccc1C(=O)OCCCC", "discrete.label": "inactive"}
{"compound": "C[C@@H]1O[C@@H](O[C@H]2C[C@@H](O)[C@]3(CO)[C@H]4[C@H](O)C[C@]5(C)[C@@H](C6=CC(=O)OC6)CC[C@]5(O)[C@@H]4CC[C@]3(O)C2)[C@H](O)[C@H](O)[C@H]1O", "discrete.label": "active"}
{"compound": "C[N+](C)(C)CC(=O)O", "discrete.label": "inactive"}
{"compound": "O=C(Cl)OCCOCCOC(=O)Cl", "discrete.label": "inactive"}
{"compound": "NC(=O)OCCCc1ccccc1", "discrete.label": "inactive"}
{"compound": "NC(=O)CF", "discrete.label": "inactive"}
{"compound": "COC(=O)c1ccccc1CS(=O)(=O)NC(=O)Nc1nc(OC)cc(OC)n1", "discrete.label": "inactive"}
{"compound": "CCC(C)(CC)c1cc(NC(=O)c2c(OC)cccc2OC)on1", "discrete.label": "inactive"}
{"compound": "Nc1ccccc1", "discrete.label": "inactive"}
{"compound": "O=C1CCCO1", "discrete.label": "inactive"}
{"compound": "CCCCC(CC)COC(=O)c1ccc(C(=O)OCC(CC)CCCC)c(C(=O)OCC(CC)CCCC)c1 (stereo unspecified)", "discrete.label": "inactive"}
{"compound": "O=[N+]([O-])c1cccc(O)c1", "discrete.label": "inactive"}
{"compound": "ClC1=C(Cl)C2(Cl)C3C(Cl)C(Cl)CC3C1(Cl)C2(Cl)Cl (stereo unspecified)", "discrete.label": "inactive"}
{"compound": "CC1CN1 (stereo unspecified)", "discrete.label": "inactive"}
{"compound": "CN1CSC(=S)N(C)C1", "discrete.label": "active"}
{"compound": "Nc1ccccc1C(=O)OCC(O)CO (stereo unspecified)", "discrete.label": "inactive"}
{"compound": "CC(C)N(C(=O)SCC(Cl)=C(Cl)Cl)C(C)C", "discrete.label": "inactive"}
{"compound": "CCC(Cl)[N+](=O)[O-] (stereo unspecified)", "discrete.label": "inactive"}
{"compound": "CCOCN(C(=O)CCl)c1c(C)cccc1CC", "discrete.label": "inactive"}
{"compound": "c1ccc(N=Nc2ccccc2)cc1", "discrete.label": "inactive"}
{"compound": "CCC(CC)Nc1c([N+](=O)[O-])cc(C)c(C)c1[N+](=O)[O-]", "discrete.label": "inactive"}

Entry source: PubChem BioAssay (Tox21)
